- Tested on: DU145 cells
- assay procedure: Proliferation assay, crystal violet (Method 3)
- Type: cell-based
- details: Homo sapiens, DU-145, 96 h; DU145, 4 days; read-out: Inhibition of DU145 cell proliferation IC50

compound | qualifying sign | IC50 (nM)
CSCc1cc2nc(c1F)N(C)CCCCOc1cc(F)ccc1-c1cc(ncc1F)N2 | = | 852
CSCc1cc2nc(c1)OCCCCCc1cc(F)ccc1-c1cc(ncc1F)N2 | > | 10000
C[S+]([O-])Cc1cc2nc(c1)OCCCCCc1cc(F)ccc1-c1cc(ncc1F)N2 (racemic) | = | 942
CC(C)(C)OC(=O)N=S(C)(=O)Cc1cc2nc(c1)Nc1cc(c(F)cn1)-c1ccc(F)cc1OCCCN2 (racemic) | = | 30
CC(C)(C)OC(=O)N=S(C)(=O)Cc1cc2cc(c1)OCCCNc1cc(F)ccc1-c1nc(ncc1F)N2 (racemic) | = | 55
